Here, each record is paired with measured koff data.
tgt: T1, In house human CD8A-Fc (human, UniProt P01732 22-182, limits assumed)
T1 construct: Captured on goat anti-human Fc on a ProteOn GLC chip; also called hCD8A-Fc; recombinant human CD8 alpha; not shown: linker with flag (and polyhistidine) tag and Fc of human IgG1
protocol_summary: SPR (ProteOn), captured hCD8A-Fc

Past entries and their recorded results:
binder	koff
P283AR9P1362_D7 (designed binder, FN3 domain) LPAPKNLVVSRVTEDSARLSWVKRATSFDSFLIQYQESEKVGEAIVLTVPGSERSYDLTGLKPGTEYTVSIYGVDVKYDIDSRPISSNPLSAIFTT	0.000118 s⁻¹
P282FR9P1361_A5 (designed binder, FN3 domain) LPAPKNLVVSRVTEDSARLSWTAPDAAFDSFGILYYEPVDSGEAITLPVPGSERSYDLTGLKPGTEYWVVITGVKGGAPSTPLGAIFTT	0.000192 s⁻¹
P283AR9P1362_F8 (designed binder, FN3 domain) LPAPKNLVVSRVTEDSARLSWGYYHGHFDSFLIQYQESEKVGEAIVLTVPGSERSYDLTGLKPGTEYTVSIYGVDVKWEGNRPVASNPLSAIFTT	0.000112 s⁻¹

Ask: Which koff value belongs to P282DR9P1359_F6 (designed binder, FN3 domain) LPAPKNLVVSRVTEDSARLSWTAPDAAFDSFDIAYPEWPTTGEAIVLTVPGSERSYDLTGLKPGTEYFVVIWGVKGGDHSAPLSAIFTT ?
Result: 0.000389 s⁻¹
